Measured EC50 of individual entries
Molecular target: Toll-like receptor 4 (Mus musculus)
Sequence (Q9QUK6 whole entry): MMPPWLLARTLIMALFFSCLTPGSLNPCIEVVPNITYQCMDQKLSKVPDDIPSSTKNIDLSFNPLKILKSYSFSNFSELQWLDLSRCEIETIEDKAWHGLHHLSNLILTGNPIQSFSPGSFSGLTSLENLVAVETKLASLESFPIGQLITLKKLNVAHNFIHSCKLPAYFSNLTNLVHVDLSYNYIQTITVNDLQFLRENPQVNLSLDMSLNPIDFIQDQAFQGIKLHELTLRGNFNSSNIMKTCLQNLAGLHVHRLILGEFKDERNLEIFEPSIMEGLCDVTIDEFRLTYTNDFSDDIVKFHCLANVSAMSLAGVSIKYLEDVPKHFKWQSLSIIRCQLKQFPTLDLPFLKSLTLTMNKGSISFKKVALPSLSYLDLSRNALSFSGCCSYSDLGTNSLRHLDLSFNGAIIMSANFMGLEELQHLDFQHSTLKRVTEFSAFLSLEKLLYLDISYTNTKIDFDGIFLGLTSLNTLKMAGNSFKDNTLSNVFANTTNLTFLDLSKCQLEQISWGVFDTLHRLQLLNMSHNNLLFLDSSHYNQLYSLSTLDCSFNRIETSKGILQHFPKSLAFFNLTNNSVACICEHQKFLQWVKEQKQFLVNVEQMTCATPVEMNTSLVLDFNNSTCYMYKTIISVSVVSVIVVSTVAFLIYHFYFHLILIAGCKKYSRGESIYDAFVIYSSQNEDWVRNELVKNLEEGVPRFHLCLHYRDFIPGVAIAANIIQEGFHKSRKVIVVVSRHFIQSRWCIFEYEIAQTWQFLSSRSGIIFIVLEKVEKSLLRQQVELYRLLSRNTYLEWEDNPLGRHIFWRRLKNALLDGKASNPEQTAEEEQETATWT
Assay: Agonist activity at TLR4 in mouse RAW264.7 cells assessed as induction of MIP-1beta release incubated for 24 hrs by ELISA
Type: cell-based
# unit: nM | format: bare number

CCCCCCCCCCC[C@H](CC(=O)N[C@H]1[C@H](OC[C@H](NC(=O)C[C@@H](CCCCCCCCCCC)OCCCCCCCCCC)C(=O)O)O[C@H](CO)[C@@H](OP(=O)(O)O)[C@H]1NC(=O)C[C@@H](CCCCCCCCCCC)OCCCCCCCCCC)OCCCCCCCCCC.CCN(CC)CC: 0.02

Turning now to a further molecule:
-- ask # return recorded EC50 for input "CCCCCCCCCCCCCC(=O)O[C@H](CCCCCCCCCCC)CC(=O)O[C@@H]1[C@@H](NC(=O)C[C@H](CCCCCCCCCCC)OC(=O)CCCCCCCCCCCCC)[C@H](OC[C@H]2O[C@H](O)[C@H](NC(=O)C[C@H](O)CCCCCCCCCCC)[C@@H](OC(=O)C[C@H](O)CCCCCCCCCCC)[C@@H]2O)O[C@H](CO)[C@H]1OP(=O)(O)O"
-- reply 0.49

----------
Target: Toll-like receptor 4 (Homo sapiens, UniProt O00206)
Sequence (O00206 whole entry): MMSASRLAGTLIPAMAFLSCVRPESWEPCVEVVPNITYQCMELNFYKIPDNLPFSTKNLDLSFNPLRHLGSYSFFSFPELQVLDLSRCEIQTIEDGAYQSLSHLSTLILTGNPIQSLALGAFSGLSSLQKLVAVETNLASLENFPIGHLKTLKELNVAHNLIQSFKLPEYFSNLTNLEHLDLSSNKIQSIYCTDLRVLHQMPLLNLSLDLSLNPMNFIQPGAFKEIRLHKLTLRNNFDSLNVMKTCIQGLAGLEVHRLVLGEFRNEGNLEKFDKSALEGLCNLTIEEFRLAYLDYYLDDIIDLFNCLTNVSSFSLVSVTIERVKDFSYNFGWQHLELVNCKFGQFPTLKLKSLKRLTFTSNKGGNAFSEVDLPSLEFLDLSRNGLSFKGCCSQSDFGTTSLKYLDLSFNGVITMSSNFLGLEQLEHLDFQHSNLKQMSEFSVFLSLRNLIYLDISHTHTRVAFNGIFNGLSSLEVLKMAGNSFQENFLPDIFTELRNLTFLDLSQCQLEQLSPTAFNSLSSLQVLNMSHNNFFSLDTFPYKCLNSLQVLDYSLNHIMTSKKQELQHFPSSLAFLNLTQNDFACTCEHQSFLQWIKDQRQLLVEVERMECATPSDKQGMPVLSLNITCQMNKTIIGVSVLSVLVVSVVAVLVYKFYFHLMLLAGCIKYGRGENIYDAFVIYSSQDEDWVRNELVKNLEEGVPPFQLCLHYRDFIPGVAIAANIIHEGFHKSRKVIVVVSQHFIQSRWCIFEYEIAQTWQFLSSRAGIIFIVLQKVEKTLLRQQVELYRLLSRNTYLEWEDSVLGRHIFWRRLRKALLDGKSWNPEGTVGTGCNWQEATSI
Assay: Agonist activity at TLR4 in human PBMC cells assessed as induction of IL-1beta release incubated for 20 hrs by ELISA
Assay type: cell-based
readout: pEC50
# pEC50 is unitless: minus log10 of the molar concentration; print number only

CCCCCCCCCCCCCC(=O)O[C@H](CCCCCCCCCCC)CC(=O)O[C@@H]1[C@@H](NC(=O)C[C@H](CCCCCCCCCCC)OC(=O)CCCCCCCCCCCCC)[C@H](OC[C@H]2O[C@H](O)[C@H](NC(=O)C[C@H](O)CCCCCCCCCCC)[C@@H](OC(=O)C[C@H](O)CCCCCCCCCCC)[C@@H]2O)O[C@H](CO)[C@H]1OP(=O)(O)O: 8.68
CCCCCCCCCCC[C@H](CC(=O)NCCO[C@@H]1O[C@H](CO)[C@@H](OS(=O)(=O)O)[C@@H](NC(=O)C[C@@H](CCCCCCCCCCC)OC(=O)CCCCCCCCC)[C@H]1NC(=O)C[C@@H](CCCCCCCCCCC)OC(=O)CCCCCCCCC)OC(=O)CCCCCCCCC.CCN(CC)CC: 7.69
CCCCCCCCCCCCCCCC(=O)O[C@H](CCCCCCCCCCC)CC(=O)N[C@@H]1[C@@H](O)[C@H](O)[C@@H](CO[C@@H]2O[C@H](CO)[C@@H](OP(=O)(O)O)[C@H](OC(=O)C[C@@H](CCCCCCCCCCC)OC(=O)CCCCCCCCCCCCC)[C@H]2NC(=O)C[C@@H](CCCCCCCCCCC)OC(=O)CCCCCCCCCCC)O[C@@H]1O: 7.37
CCCCCCCCCCC[C@H](CC(=O)NCCO[C@@H]1O[C@H](CO)[C@@H](OP(=O)(O)O)[C@H](OC(=O)C[C@@H](CCCCCCCCCCC)OC(=O)CCCCCCCCC)[C@H]1NC(=O)C[C@@H](CCCCCCCCCCC)OC(=O)CCCCCCCCC)OC(=O)CCCCCCCCC: 8.58
CCCCCCCCCCC[C@H](CC(=O)N[C@H]1[C@H](OC[C@H](NC(=O)C[C@@H](CCCCCCCCCCC)OCCCCCCCCCC)C(=O)O)O[C@H](CO)[C@@H](OS(=O)(=O)O)[C@H]1NC(=O)C[C@@H](CCCCCCCCCCC)OCCCCCCCCCC)OCCCCCCCCCC.CCN(CC)CC: 9.01

-- ask # return recorded pEC50 for input "CCCCCCCCCCC[C@H](CC(=O)NCCO[C@@H]1O[C@H](CO)[C@@H](OP(=O)(O)O)[C@@H](NC(=O)C[C@@H](CCCCCCCCCCC)OC(=O)CCCCCCCCC)[C@H]1NC(=O)C[C@@H](CCCCCCCCCCC)OC(=O)CCCCCCCCC)OC(=O)CCCCCCCCC.CCN(CC)CC"
-- reply 8.06

----------
Molecular target: Toll-like receptor 4 (Mus musculus)
Test: Agonist activity at TLR4 in mouse RAW264.7 cells assessed as induction of MIP-1beta release incubated for 24 hrs by ELISA
Type: cell-based
readout: EC50 (nM)
# unit: nM | format: bare number

CCCCCCCCCCC[C@H](CC(=O)NCCO[C@@H]1O[C@H](CO)[C@@H](OP(=O)(O)O)[C@@H](NC(=O)C[C@@H](CCCCCCCCCCC)OC(=O)CCCCCCCCC)[C@H]1NC(=O)C[C@@H](CCCCCCCCCCC)OC(=O)CCCCCCCCC)OC(=O)CCCCCCCCC.CCN(CC)CC: 0.26
CCCCCCCCCCC[C@H](CC(=O)N[C@H]1[C@H](OC[C@H](NC(=O)C[C@@H](CCCCCCCCCCC)OCCCCCCCCCC)C(=O)O)O[C@H](CO)[C@@H](OS(=O)(=O)O)[C@H]1NC(=O)C[C@@H](CCCCCCCCCCC)OCCCCCCCCCC)OCCCCCCCCCC.CCN(CC)CC: 0.04
CCCCCCCCCCC[C@H](CC(=O)NCCO[C@@H]1O[C@H](CO)[C@@H](OP(=O)(O)O)[C@H](OC(=O)C[C@@H](CCCCCCCCCCC)OC(=O)CCCCCCCCC)[C@H]1NC(=O)C[C@@H](CCCCCCCCCCC)OC(=O)CCCCCCCCC)OC(=O)CCCCCCCCC: 0.48

-- ask Enter recorded EC50 with Toll-like receptor 4 (Mus musculus) for "CCCCCCCCCCCCCCCC(=O)O[C@H](CCCCCCCCCCC)CC(=O)N[C@@H]1[C@@H](O)[C@H](O)[C@@H](CO[C@@H]2O[C@H](CO)[C@@H](OP(=O)(O)O)[C@H](OC(=O)C[C@@H](CCCCCCCCCCC)OC(=O)CCCCCCCCCCCCC)[C@H]2NC(=O)C[C@@H](CCCCCCCCCCC)OC(=O)CCCCCCCCCCC)O[C@@H]1O" here.
-- reply 3.73

----------
Biological target: Toll-like receptor 4 (Mus musculus)
Test: Agonist activity at mouse TLR4 in human HEK-Blue mTLR4 cells assessed as NF-kappaB activation incubated for 48 hrs by SEAP reporter gene based Quanti-blue assay
Assay type: cell-based
Measured pEC50 of individual entries
# pEC50 is unitless: minus log10 of the molar concentration; print number only

// solved cases for pEC50 follow
CCCCCCCCCCC[C@H](CC(=O)N[C@H]1[C@H](OC[C@H](NC(=O)C[C@@H](CCCCCCCCCCC)OCCCCCCCCCC)C(=O)O)O[C@H](CO)[C@@H](OS(=O)(=O)O)[C@H]1NC(=O)C[C@@H](CCCCCCCCCCC)OCCCCCCCCCC)OCCCCCCCCCC.CCN(CC)CC: 9.17
CCCCCCCCCCC[C@H](CC(=O)NCCO[C@@H]1O[C@H](CO)[C@@H](OP(=O)(O)O)[C@@H](NC(=O)C[C@@H](CCCCCCCCCCC)OC(=O)CCCCCCCCC)[C@H]1NC(=O)C[C@@H](CCCCCCCCCCC)OC(=O)CCCCCCCCC)OC(=O)CCCCCCCCC.CCN(CC)CC: 9.43
CCCCCCCCCCC[C@H](CC(=O)N[C@H]1[C@H](OC[C@H](NC(=O)C[C@@H](CCCCCCCCCCC)OCCCCCCCCCC)C(=O)O)O[C@H](CO)[C@@H](OP(=O)(O)O)[C@@H]1OC(=O)C[C@@H](CCCCCCCCCCC)OCCCCCCCCCC)OCCCCCCCCCC: 11.30

-- ask # return recorded pEC50 for input "CCCCCCCCCCCCCC(=O)O[C@H](CCCCCCCCCCC)CC(=O)O[C@@H]1[C@@H](NC(=O)C[C@H](CCCCCCCCCCC)OC(=O)CCCCCCCCCCCCC)[C@H](OC[C@H]2O[C@H](O)[C@H](NC(=O)C[C@H](O)CCCCCCCCCCC)[C@@H](OC(=O)C[C@H](O)CCCCCCCCCCC)[C@@H]2O)O[C@H](CO)[C@H]1OP(=O)(O)O"
-- reply 8.85

----------
Target: Toll-like receptor 4 (Homo sapiens, UniProt O00206)
Assay: Agonist activity at TLR4 in human PBMC cells assessed as induction of RANTES release incubated for 20 hrs by ELISA
Type: cell-based
readout: EC50

// solved cases for EC50 follow
CCCCCCCCCCC[C@H](CC(=O)NCCO[C@@H]1O[C@H](CO)[C@@H](OP(=O)(O)O)[C@H](OC(=O)C[C@@H](CCCCCCCCCCC)OC(=O)CCCCCCCCC)[C@H]1NC(=O)C[C@@H](CCCCCCCCCCC)OC(=O)CCCCCCCCC)OC(=O)CCCCCCCCC: 1.26 nM
CCCCCCCCCCC[C@H](CC(=O)NCCO[C@@H]1O[C@H](CO)[C@@H](OP(=O)(O)O)[C@@H](NC(=O)C[C@@H](CCCCCCCCCCC)OC(=O)CCCCCCCCC)[C@H]1NC(=O)C[C@@H](CCCCCCCCCCC)OC(=O)CCCCCCCCC)OC(=O)CCCCCCCCC.CCN(CC)CC: 3.68 nM
CCCCCCCCCCCCCC(=O)O[C@H](CCCCCCCCCCC)CC(=O)O[C@@H]1[C@@H](NC(=O)C[C@H](CCCCCCCCCCC)OC(=O)CCCCCCCCCCCCC)[C@H](OC[C@H]2O[C@H](O)[C@H](NC(=O)C[C@H](O)CCCCCCCCCCC)[C@@H](OC(=O)C[C@H](O)CCCCCCCCCCC)[C@@H]2O)O[C@H](CO)[C@H]1OP(=O)(O)O: 1.92 nM
CCCCCCCCCCC[C@H](CC(=O)N[C@H]1[C@H](OC[C@H](NC(=O)C[C@@H](CCCCCCCCCCC)OCCCCCCCCCC)C(=O)O)O[C@H](CO)[C@@H](OP(=O)(O)O)[C@H]1NC(=O)C[C@@H](CCCCCCCCCCC)OCCCCCCCCCC)OCCCCCCCCCC.CCN(CC)CC: 0.14 nM
CCCCCCCCCCCCCCCC(=O)O[C@H](CCCCCCCCCCC)CC(=O)N[C@@H]1[C@@H](O)[C@H](O)[C@@H](CO[C@@H]2O[C@H](CO)[C@@H](OP(=O)(O)O)[C@H](OC(=O)C[C@@H](CCCCCCCCCCC)OC(=O)CCCCCCCCCCCCC)[C@H]2NC(=O)C[C@@H](CCCCCCCCCCC)OC(=O)CCCCCCCCCCC)O[C@@H]1O: 31.5 nM

-- ask # return recorded EC50 for input "CCCCCCCCCCC[C@H](CC(=O)N[C@H]1[C@H](OC[C@H](NC(=O)C[C@@H](CCCCCCCCCCC)OCCCCCCCCCC)C(=O)O)O[C@H](CO)[C@@H](OP(=O)(O)O)[C@@H]1OC(=O)C[C@@H](CCCCCCCCCCC)OCCCCCCCCCC)OCCCCCCCCCC"
-- reply 0.014 nM
